- target-under-test: UniProt:Q15562
- Sequence (Q15562 whole entry): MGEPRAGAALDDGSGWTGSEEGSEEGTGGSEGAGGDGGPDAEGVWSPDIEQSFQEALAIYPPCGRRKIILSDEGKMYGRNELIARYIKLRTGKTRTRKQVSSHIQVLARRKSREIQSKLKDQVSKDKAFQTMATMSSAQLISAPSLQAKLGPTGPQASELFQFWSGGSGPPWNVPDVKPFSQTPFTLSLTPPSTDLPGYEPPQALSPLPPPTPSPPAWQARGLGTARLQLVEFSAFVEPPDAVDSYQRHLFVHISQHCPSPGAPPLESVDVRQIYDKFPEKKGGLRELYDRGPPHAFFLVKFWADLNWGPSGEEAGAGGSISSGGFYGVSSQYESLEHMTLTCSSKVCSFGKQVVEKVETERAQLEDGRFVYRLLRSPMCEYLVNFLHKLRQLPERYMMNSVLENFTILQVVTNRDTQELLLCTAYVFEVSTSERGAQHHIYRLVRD
- assay-notes: Palmitoylation assay, TEAD2 (HEK293T cells)
- Assay type: cell-based
- Set-up: unspecified tag; expressed in transfected cells; host or cells: HEK293T
- condition-info: 3 um compound, 24 hours
yes means recorded TEAD2 Inh (palmitoylation) is 50% or above; no means it is below 50%.

C=CC(=O)N1CC(/C=C/c2ccc(C(F)(F)F)cc2)C1 [Example 15] | yes

Prompt: Is TEAD2 Inh (palmitoylation) for C=CC(=O)N1CC(/C=C/c2cc(C(F)(F)F)on2)C1 [Example 21] at or above 50%?
Response: yes

Prompt: How about C=CC(=O)N1CC[C@H](/C=C/c2ccc(C(F)(F)F)cc2)C1 (single isomer, unassigned) [Example 10] ?
Response: yes
